pIC50 values by entry
- SYSTEM_TESTED: IL-17RA/IL17RC dimerization induced by IL-17A (Homo sapiens, UniProt Q16552)
- Sequence (Q16552 24-155): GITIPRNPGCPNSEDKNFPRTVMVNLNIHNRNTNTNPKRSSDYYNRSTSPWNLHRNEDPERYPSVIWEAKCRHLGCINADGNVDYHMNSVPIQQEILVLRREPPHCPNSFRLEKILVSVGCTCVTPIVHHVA
- ASSAY_SUMMARY: IL-17RA/IL17RC dimerization assay in response to IL-17A (PathHunter Cytokine Receptor Assay)
- Format: cell-based
- CONDITION_SUMMARY: IL-17A at EC80; read-out: IC50 in IL-17RA/IL7RC dimerization assay
pIC50: −log10 of the molar value. Residues, ends and D or L forms follow the SMILES beside them.

Completed entries (count: 3):
>  <MOLECULE>
CC[C@H](C)[C@H](NC(=O)[C@H](Cc1c[nH]c2ccccc12)NC(=O)[C@H](CCC(=O)O)NC(=O)[C@H](Cc1ccc(O)cc1)NC(=O)[C@H](CC(C)C)NC(=O)[C@H](CC(=O)O)NC(=O)[C@H](C)NC(=O)[C@@H]1CCCN1C(=O)[C@@H](NC(=O)[C@@H](NC(=O)[C@@H](NC(=O)[C@H](CCSC)NC(=O)[C@@H](NC(C)=O)C(C)C)C(C)C)[C@@H](C)O)[C@@H](C)CC)C(=O)N[C@@H](CC(N)=O)C(=O)N[C@@H](CCCCN)C(N)=O [SEQ ID NO: 16] (Ac-VMVTIPADLYEWINK-NH2)

>  <SYSTEM_TESTED>
IL-17RA/IL17RC dimerization induced by IL-17A (Homo sapiens, UniProt Q16552)

>  <pIC50>
> 6.40

$$$$
>  <MOLECULE>
CC[C@H](C)[C@H](NC(C)=O)C(=O)N[C@@H](Cc1c[nH]cn1)C(=O)N[C@H](C(=O)N[C@H](C(=O)N[C@H](C(=O)N1CCC[C@H]1C(=O)N[C@@H](C)C(=O)N[C@@H](CC(=O)O)C(=O)N[C@@H](CC(C)C)C(=O)N[C@@H](Cc1c[nH]c2ccccc12)C(=O)N[C@@H](CC(=O)O)C(=O)N[C@@H](Cc1c[nH]c2ccccc12)C(=O)N[C@@H](Cc1ccc(O)cc1)C(=O)N[C@@H](CC(N)=O)C(=O)N[C@@H](CCCCN)C(N)=O)[C@@H](C)CC)[C@@H](C)O)C(C)C [SEQ ID NO: 219] (Ac-IHVTIPADLWDWYNK-NH2)

>  <SYSTEM_TESTED>
IL-17RA/IL17RC dimerization induced by IL-17A (Homo sapiens, UniProt Q16552)

>  <pIC50>
> 5.00

$$$$
>  <MOLECULE>
CC(=O)N[C@H](C(=O)N[C@@H](Cc1c[nH]cn1)C(=O)N[C@@H](Cc1ccccc1)C(=O)N[C@@H](CCC(N)=O)C(=O)N[C@@H](Cc1ccccc1)C(=O)N1CCC[C@H]1C(=O)N[C@@H](C)C(=O)N[C@@H](CC(=O)O)C(=O)N[C@@H](CC(C)C)C(=O)N[C@@H](Cc1c[nH]c2ccccc12)C(=O)N[C@@H](CCC(=O)O)C(=O)N[C@@H](Cc1c[nH]c2ccccc12)C(=O)N[C@@H](Cc1ccccc1)C(=O)N[C@@H](CCCNC(=N)N)C(=O)N[C@@H](CCCNC(=N)N)C(N)=O)C(C)C [SEQ ID NO: 135] (Ac-VHFQFPADLWEWFRR-NH2)

>  <SYSTEM_TESTED>
IL-17RA/IL17RC dimerization induced by IL-17A (Homo sapiens, UniProt Q16552)

>  <pIC50>
> 6.30

$$$$

Ask: State the recorded pIC50 for this entry: CC[C@H](C)[C@H](NC(C)=O)C(=O)N[C@@H](Cc1c[nH]cn1)C(=O)N[C@H](C(=O)N[C@H](C(=O)N[C@H](C(=O)N1CCC[C@H]1C(=O)N1CCC[C@H]1C(=O)N[C@@H](CC(=O)O)C(=O)N[C@@H](CC(C)C)C(=O)N[C@@H](Cc1c[nH]c2ccccc12)C(=O)N[C@@H](CC(=O)O)C(=O)N[C@@H](Cc1c[nH]c2ccccc12)C(=O)N[C@H](C(=O)N[C@@H](CC(N)=O)C(=O)N[C@@H](CCCCN)C(N)=O)[C@@H](C)CC)[C@@H](C)CC)[C@@H](C)O)C(C)C [SEQ ID NO: 194] (Ac-IHVTIPPDLWDWINK-NH2)
Result: > 5.00
